Task for the reader: assign each of the following molecules its reported hERG current change (%, negative = inhibition) at 1uM.
Tgt: human ether-à-go-go-related gene (hERG) potassium channel (human, UniProt Q12809)
Sequence (Q12809 whole entry, looked up): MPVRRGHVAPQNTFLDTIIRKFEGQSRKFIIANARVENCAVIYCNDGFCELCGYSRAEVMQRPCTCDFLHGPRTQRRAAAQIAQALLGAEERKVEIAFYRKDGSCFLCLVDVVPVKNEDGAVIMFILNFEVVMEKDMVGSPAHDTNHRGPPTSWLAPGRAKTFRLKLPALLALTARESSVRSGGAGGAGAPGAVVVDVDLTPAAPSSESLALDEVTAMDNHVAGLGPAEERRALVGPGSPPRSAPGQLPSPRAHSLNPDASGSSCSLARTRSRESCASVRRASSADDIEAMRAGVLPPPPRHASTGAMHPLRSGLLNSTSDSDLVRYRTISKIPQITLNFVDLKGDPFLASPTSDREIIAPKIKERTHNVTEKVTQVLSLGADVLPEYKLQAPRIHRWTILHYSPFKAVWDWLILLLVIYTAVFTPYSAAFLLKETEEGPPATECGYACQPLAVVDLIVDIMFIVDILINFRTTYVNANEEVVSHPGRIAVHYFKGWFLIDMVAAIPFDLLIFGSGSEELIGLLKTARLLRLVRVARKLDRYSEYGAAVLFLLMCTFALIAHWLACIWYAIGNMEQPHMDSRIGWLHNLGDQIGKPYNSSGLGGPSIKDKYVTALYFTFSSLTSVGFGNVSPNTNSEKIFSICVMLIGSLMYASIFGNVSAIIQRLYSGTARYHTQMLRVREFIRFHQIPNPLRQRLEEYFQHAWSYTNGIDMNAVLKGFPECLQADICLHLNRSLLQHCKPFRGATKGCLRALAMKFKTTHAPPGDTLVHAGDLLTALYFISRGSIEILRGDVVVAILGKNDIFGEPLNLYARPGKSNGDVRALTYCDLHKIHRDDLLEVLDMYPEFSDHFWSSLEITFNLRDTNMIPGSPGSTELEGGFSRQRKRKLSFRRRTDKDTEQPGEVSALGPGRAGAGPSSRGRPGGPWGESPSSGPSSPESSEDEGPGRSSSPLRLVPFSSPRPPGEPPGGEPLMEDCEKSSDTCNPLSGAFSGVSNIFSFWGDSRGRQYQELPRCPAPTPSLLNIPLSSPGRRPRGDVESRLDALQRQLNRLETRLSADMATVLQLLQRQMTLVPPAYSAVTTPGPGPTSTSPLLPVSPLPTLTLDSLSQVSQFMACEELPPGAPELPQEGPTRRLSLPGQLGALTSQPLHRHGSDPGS
Protocol: primary screen, population patch clamp on CHO cells stably expressing hERG; higher = less effect of the substance
Out of some 310,000 compounds screened, about 2,200 (0.71%) showed an effect of 50% or more. Effects have a minus sign here. This excerpt belongs to a sample that is enriched for strong results.
Numbers only; they are read as %.

Summary for this molecule, Cc1cc(=O)n2nc(N3CCCC3C(=O)Nc3cccc(Cl)c3C)sc2n1 (centres unmarked) : hERG current change (%, negative = inhibition) at 1uM is 12.5

So, `FC(F)Oc1ccc(-n2cc(-c3ccc(Cl)cc3)[n+]3c2CCCCC3)cc1.[Br-]` ? Its hERG current change (%, negative = inhibition) at 1uM was -45.2

response.value for `Cc1cc(C)c[n+](CC(=O)c2c(C)cc(C)c([N+](=O)[O-])c2C)c1.[Br-]` (field: hERG current change (%, negative = inhibition) at 1uM) = -52.7

The measured hERG current change (%, negative = inhibition) at 1uM associated with Cc1ccc(/C(O)=C2\C(=O)C(=O)N(CCN(C)C)C2c2ccccc2F)cc1 (centres unmarked) reads -6.65

Record summary for `Cc1cc(C)c[n+](CC(=O)c2ccccc2)c1.[Br-]` : reported hERG current change (%, negative = inhibition) at 1uM = 20.1

* * *

Tgt: human ether-à-go-go-related gene (hERG) potassium channel (human)
Protocol: primary screen, population patch clamp on CHO cells stably expressing hERG; higher = less effect of the substance
Out of some 310,000 compounds screened, about 2,200 (0.71%) showed an effect of 50% or more. The effect is printed as a negative number. Shown is part of a subset that was picked to be rich in strong results.
Exercise: state measured hERG current change (%, negative = inhibition) at 1uM for each of the compounds provided.
Reply numerically in %, unit not repeated.

The compound listed as `Cc1ccc(S(=O)(=O)N2CCN(c3ccc(C(F)(F)F)cc3[N+](=O)[O-])CC2)cc1` shows hERG current change (%, negative = inhibition) at 1uM equal to 2.51

Summary for this compound, `O=C(CN1CCCCCC1)NCc1ccccc1` : hERG current change (%, negative = inhibition) at 1uM is 11.8

Documented hERG current change (%, negative = inhibition) at 1uM of `Cc1cc(N2CCN(c3ccc([N+](=O)[O-])c4cccnc34)CC2)c2ccccc2n1` : -13.9

Lab note: `CS(=O)(=O)NCc1nnc(SCc2c(F)cccc2Cl)o1` gave hERG current change (%, negative = inhibition) at 1uM of -1.52

Sample `CCCc1cc(C(=O)Nc2cc(Br)ccc2O)no1` ; hERG current change (%, negative = inhibition) at 1uM observed: 18.4

`O=C(NCC(=O)N1CCN(C/C=C/c2ccccc2)CC1)c1ccc(OC(F)F)cc1` yielded hERG current change (%, negative = inhibition) at 1uM of -50.4

Item: `COc1ccccc1CCNC(=O)C1CCN(c2nnc(C)c3c(C)n(-c4ccc(C)cc4)nc23)CC1` | hERG current change (%, negative = inhibition) at 1uM: 14.7

Entry under test: CC(C)(C)CN1CCNC(=O)C1CC(=O)NCCc1cnn(-c2ccccc2)c1 (stereo not drawn) . Its hERG current change (%, negative = inhibition) at 1uM was 5.53

// hERG current change (%, negative = inhibition) at 1uM lookup, compound = `CCCCN(C)C(=O)c1cc2c(s1)-c1ccccc1S(=O)(=O)C2` , result: -6.69

Measured hERG current change (%, negative = inhibition) at 1uM of `CCC(=O)Nc1ccc2oc(-c3ccccc3Br)nc2c1` : 9.07

hERG current change (%, negative = inhibition) at 1uM for `O=C(Cn1cc2c(n1)CCCC2)N1CCCC1` is 8.36

Record `CCOC(=O)c1nn(-c2ccc(F)cc2)c(=O)cc1OCC(=O)Nc1ccc(OCC)cc1` . Reported hERG current change (%, negative = inhibition) at 1uM: 10.8

Sure, the documented hERG current change (%, negative = inhibition) at 1uM for `CCOC(=O)N1CCN(C(=O)Cn2cc3c(n2)CCCC3)CC1` is -51.2

Lab note: `O=C(NCC(=O)N1CCCCCC1)c1ccc(OC(F)F)cc1` gave hERG current change (%, negative = inhibition) at 1uM of 10.4

`COc1ccccc1NCC(=O)N/N=C/c1cccnc1` has a reported hERG current change (%, negative = inhibition) at 1uM of 4.49

Query `Cl.O=C(CN1CCCC1)NCc1ccccc1` yields hERG current change (%, negative = inhibition) at 1uM of 13.4

Entry under test: O=C(/C=C/c1ccccc1)C1=C(O)C(=O)N(CCO)C1c1ccccc1[N+](=O)[O-] (stereo not drawn) . Its hERG current change (%, negative = inhibition) at 1uM was 11.9

Quick note, hERG current change (%, negative = inhibition) at 1uM for `O=C(Nc1nnc(-c2ccccc2)s1)c1ccccc1F` landed at 13.3

The compound `CCCn1c(C)cc(/C=C(\C#N)C(=O)OCC(=O)N(C)c2c(N)n(Cc3ccccc3)c(=O)[nH]c2=O)c1C` showed hERG current change (%, negative = inhibition) at 1uM equal to 11

The reported value for `O=C(CN1CCN(C/C=C/c2ccccc2)CC1)NCc1ccccc1` in terms of hERG current change (%, negative = inhibition) at 1uM is -53.6

Looking up `CC(=O)c1ccc(NC(=O)CSc2n[nH]c(-c3cccnc3)n2)cc1` , I found its hERG current change (%, negative = inhibition) at 1uM recorded as 14.1
